- Tested on: A673/TR/shEF
- Procedure summary: cell viability (LOESS-normalised, relative to median of negative controls) (log2 ratio); higher = more viable cells (less compound effect), active = hit call of the paper (over 3 MAD below the median)
- Condition notes: 0.103 µM; library screen: screen3; EWS-FLI1 expression: high (no doxycycline); treatment time: 72 h
Out of some 3,200 compounds screened, about 300 (9.4%) showed activity. The sample as a whole holds a higher share of actives than the screen did.
Select the matching outcome among active, inactive

Ask: Tell me the recorded outcome of this test for COc1cc2c(N3CCN(C(=O)Nc4ccc(OC(C)C)cc4)CC3)ncnc2cc1OCCCN1CCCCC1 .
Result: inactive

Ask: Entry CC(C(=O)O)c1cccc(C(=O)c2ccccc2)c1 (configuration not stated) : call = ?
Result: inactive

Ask: What did this assay record as the result for Nc1ncnc2c1ncn2[C@@H]1O[C@H](CO)[C@@H](O)[C@H]1O ?
Result: inactive

Ask: For COc1ccc2nc([S@@+]([O-])Cc3ncc(C)c(OC)c3C)[nH]c2c1 , what call appears in the results of this test?
Result: inactive

Ask: Could you check what this test reported for COc1ccc(-c2ccc3c(N4CCOC[C@@H]4C)nc(N4CCOC[C@@H]4C)nc3n2)cc1CO ?
Result: active

Ask: Please indicate how the test categorized Oc1ccc(OCc2ccccc2)cc1 .
Result: inactive

Ask: Hi, sorry to bother you, what did the test record for Nc1ccn([C@@H]2O[C@H](CO)[C@@H](O)[C@@H]2O)c(=O)n1 ?
Result: active
